RUN_DESCRIPTION: yeast display, Sf9 membrane polyspecificity reagent, FACS + sequencing; frameworks hold sequencing errors

SEQ_TEXT	polyreactivity (PSR sort gate)
QVQLVESGGGLVQAGGSLRLSCAASGITFAYYAMGWYRQAPGKERELVAVITSGGRTNYADSVKGRFTISRDNAKNTVYLQMNSLKPEDTAVYYCAAYRSSKTLRLGYYYWGQGTQVTVSS	high polyreactivity
QVQLVESGGGLVQAGGSLRLSCAASGFTFRKYAMGWYRQAPGKERELVADISGGTGSTYYADSVKGRFTISRDNAKNTDYLHMNSLKPEDTAVYYCNAEGWYYLTEYGYWGQGTQLTVSS	low polyreactivity
QVQLVESGGGLVQAGRSLRLSCAASGRIFFGYAMGWYRQAPGKERELVAVISSGCRTYYADSVKGRFTISRDNAKNTVYLQMNSLKAEDTAVYYCAAIIPPTKQRGYYYVGRSEYDYWGQGSQVTVSS	low polyreactivity
QVQLVESGGGLVQAGGSLRLSCAASGSTFVHNAMGWYRQAPGKERELVAAISESGGGTYYADSVKGRFKISRDNAKNTVYLQMNSQKPEDTAVYYCAAPPAGENWRDGGGYFGQGTQVTVSS	low polyreactivity
QVQLVESGGGLVQAGGSLRLSCVASGRIFARNAMGWYRQAPGKERELVAAITWSVGSTYYADSVKGRFTISRDNAKNTVYLQMISLKPEDTAVYYCAERYWYSRYWYDYWGQGTQVTVSS	high polyreactivity
QVQLVESGGGLVQAGCSLRISCSASGRTFIGYAMGSYRQAPGKERELVAAICRSGGSTYYADSVKGRFTISRDNAKNTVYLQMNSLKPEDTAVYYCAKQRRDDNGGYWGQATQVTVSS	high polyreactivity
QVQLVESGGGLVQAGGSLRLSCAASGYIFWYNAMGWYRQAPGKERELVAAISRSGGRTYYADSVKGRCTISRDNAKNTVYLQMNSLKPDDTAVYYCAAGSSHHYVYEGGYWGQGTQVTVSS	low polyreactivity
QVQLVESGGGLVQAGGSLRLSCAASGIIFSKYAMGWYRQAPGKERELVAAISWNGVSTYYADSVKGRFTISRDNAKNTVYLQMNSLKPEDTAVYYCAADTYRSRRISYYWGQGTQVTVSS	low polyreactivity
QVQLVESGGGLVQAGGSLRLSCAASGFTFRTYAMGWYRQAPGKERELVATIRRAGSTNYADSVKGRFTISRDNAKNTVYLQMNSLNPEDTAVYYCAARVVTRVRGVGYNYWGQGTQVTVSS	high polyreactivity
QVQLVESGGGLVQAGGSLRLSCAASGSIFLFYAMGWYRQAPGKERELVAAISYSGGRTYYADSVKGRFTISRDNAKNTVYLQMNSLNPEDTAVYYCAAVGYSSYPYRRFDYWGQGTQVTVSS	high polyreactivity
QVQLVESVGGLVQAGGSLRLSCAASGSTFYENTMGWYRQAPGKERELVAAISFRGGSRYYADSVKGRFTISRDNAKNTVYLQMNSLKPEDTAVYYCNADDSPVPSIRFDYWGEGTQVTVSS	low polyreactivity
QVQLVESGGGLVQAGGSLRLSCAASGSIYRRNAMGWYRKAPRKERELVAAISSNGGSTYYADSVKGRFTISRDNAMNTVYLQMNSLKPEDSAVYYCAASPSGWRYDYWGQGTQVTVSS	high polyreactivity
QVHLVESGGGLVQAGGSLRLSCAASGSTSRTYAMGWNRPQPGKERELVAAISSSGGRTTYADSVKGRFTFSRDNAKNTVSLQMNSLKPEDTAVYYCNARTYSYRGYNYWGQGTQVTVSS	high polyreactivity
QVQLVESGGGLVQAGGSLRLSCAASGRIFPPYAMGWYRQAPGKERELVAAISCGGSRTYYADSVKGRFTISRDNAKNTVYLQMNSLKPEDTAVYYCAAKNYLAKSGDYWGQGTQVTVSS	high polyreactivity
QVQLVESGGGLVQAGGSLRLSCAASGRTFVYYAMGWYRQAPGKERELVASISSGGGSTNYADSVKGRFTISRDNAKNTVYLQMNSLKPEDTAVYYCAVDTPRYRYYRTSYDYWGQGTQVTVSS	low polyreactivity
QVQREESGGGLVQAGGSLRLSCAASGRIMNINAMGWYRPATGKERERVAAITWRGGRTFYADSVKGRFTISRDNAKNTVYLQMNSLKAEDTAVYYCAASSNSWYPTGYYWGQGTQVTVSS	high polyreactivity
QVQLQESGGGLVQAGGSLCLSCAASGTIFFDGDMGWYRQAPGKEREFVAAINPGGSAYNADSVKGRLPLAAITHTVYLQMNSLKPEDTAVYYCSAKLFDVYGYYYWGQGTHVTVSS	low polyreactivity
QVQLVESGGGLVQAGGSLRLSCAACGRTFFPYAIGWYRQAPGKERELVAAITTGDITNYADSVKGRFTISRDNAKNTVYLQMNSLKPEDTAVNYCAARGYASWSYGGYPLKLDYWGQGTQVTVSS	low polyreactivity
QVQLEESGGGLVQAGGSLRLSCAASGRPCWLMLWDGIDRRLGKKGSWLPLTASTYYADSVKGRFTISRDNAKNTVYLQMNSLKPEDTAVYYCAADLYYGDYRTLPIADEYDYWGQGTQVTVSS	low polyreactivity
QVQLVESVGGLVQAGGSLRLSCAASGSIFWPNAMGWYRQAPGKERELVATISGSGGSTYYADSVKGRFTISRDNAKNTVYLQMNSLKPEDTAVYYCAADYRYGRYDYWGQGTQVTVSS	high polyreactivity
QVQLVASAGGLVQAGRSLRLSCAASGRIFSWYTMGWYRQAPGKERELVADITYSGGSTYYADSVKGRFTISRDNAKNTVYLQMNSLKPEDTAVVYCIADPRWYHFEYGYWGQGTQVTVSS	high polyreactivity

###

RUN_DESCRIPTION: yeast display, Sf9 membrane polyspecificity reagent, FACS + sequencing; frameworks hold sequencing errors
READOUT_KIND: polyreactivity (PSR sort gate)

SEQ_TEXT	READOUT_KIND	OBSERVED_RESULT
QVQLVESGGGLVQAGGSLRLSCAASGSTFTGYAMGWYRQAPGKERELVAGISVTGGNTYYADSVKGRFTISRDNAKKTVYLQMNSLKPEDTAVYYCNAVVLSYYAGEMDYWGQGTQVTVSS	polyreactivity (PSR sort gate)	low polyreactivity
QVQLVESGGGLVQVGGSLRLSCAASGITLSYYAMGWYRQAPRKERELVASITVSRTSTYYADSVKGRFTISRDNAKNTVYLQMNSLKPEDTEVYYCNADGDHPYRRNDYWGQGTQVTVSS	polyreactivity (PSR sort gate)	low polyreactivity
QVKLVESGGGLVQAGGSLRLSCAASGGIFSPNAMGWYRHAPGKERELVAAISSNGGSTNYADSVKGRFTISRDNAKNTVYLQMNSLKPEDNAVYYCAKVYRSIGPNVSRYGLSYYYWGQGTQVTVSS	polyreactivity (PSR sort gate)	low polyreactivity

###

RUN_DESCRIPTION: yeast display, Sf9 membrane polyspecificity reagent, FACS + sequencing; frameworks hold sequencing errors
READOUT_KIND: polyreactivity (PSR sort gate)

SEQ_TEXT	OBSERVED_RESULT
QVQLVESWGGLVQAGCRLRLSCAASGRTFLTYVMGWYRQAPGKERELVAAITRGGRTNYADSVKGRFTISRDNAKNTVFLQMNSLKPEDTAVYYCARDDTPRYDYWGQGTQVTVSS	low polyreactivity
QDQLVESAGGLVQAGGSLRLSCAATASTFHLYAMGWYRQAAGKERELVASIRWSGGSTYYADSVKGRFTISRDNAKNTVYLQMNSLKPEDTAVYYCASEAVPYWSWGRPMYYWGQGTQVTVSS	high polyreactivity
QVQLVGSGGGLVQAGGSLRLSCAASGSTFGYYAMGWYRQAPGKERELVAAITKSGGSTFYADSVKGRFTISRDNAKNTVYLQMNSLKPEDTAVYYCAARYKGQYYRQGRHDFWGQGTQVTVSS	high polyreactivity
QVQLVESGGGLVQAGGSLRLSCAASGIILRYYAMGWYRQAPGKERELVAAITRGGSTNYADSVKGRFTISRDNAKNTVYLQMNSLKPEDTAVYYCAADVVFWFSNVAWGDFGYWGQGTQVTVSS	low polyreactivity
QVQLVESGGGLVQAGGSLRLSCAASGRIFNDYTMGWYRPAPGKERELVAAITNRDTSTSYADSVKGRFTISRDNAKNTVYLQMNSLKPEDTAVYYCNAQQVIVVYRPGDYWGQGTQVTVSS	low polyreactivity

###

RUN_DESCRIPTION: yeast display, Sf9 membrane polyspecificity reagent, FACS + sequencing; frameworks hold sequencing errors
READOUT_KIND: polyreactivity (PSR sort gate)

SEQ_TEXT	OBSERVED_RESULT
QVQLVESGGGLVQAGGSLRLSCAASGFIFTTYGMGWYRQAPGKERELVAAISYRGDSTYYADSVKGRFTISRDNAKNTVYLQMNSLKPEDTAVYYCAADVTQKPYGLSHGQDAYDYWGQGTQVTVSS	low polyreactivity
QVQLVESGGGLVQAGGSLRLSCAASGITFIRNAMGWYRQAPGKERELVAAISYRGGSTYYADSVKGRFTISRDNAKNTVYLQMNSLKPEDTAVYYCAAARKLDATTYYKFDYWGQGTQVTVSS	high polyreactivity
QVQLVESGGGLVQAGGSLRLSCAASGRIFWVYAMGWSRQAPGKERERVAAITWRGVSTYFADSVKGRFTISRDNAKNTVYLQMNSLKPEDTAVYYCAVSLYGYSGNYGPYWYDYWGQGTQVTVSS	low polyreactivity
QVQLVDSGGGLVQAGGILRLSCAASGNIIYQNALVWSRHAPGKERELVAAITGRGSSTYYADSVKGRFTSSRDNAKNTVYLQMNSLKPEDTAVYYCAADTTPYDGYYGHGYWGQGTQVTVSS	low polyreactivity
QVQLVESGGGLVQAGGSLRLSCAASGFTFRRYAMGWYRQAPGKERELVAAISIRGGRTYYADSVKGRFTISRDNAKNTVYLQMNSLKPEDTAVYYCAAEVGFWGYGGYYYWGQGTQVTVSS	high polyreactivity
QVQLVESGGGLVQAGGSLRLSCAASGFTFSTYDMGWYRQAPRKERELVAAIDYIDGSTYYADSVKGRFTISRDNAKNTVDLQMNCLKPEDTAVYYCAAHYYYDEFGYWGQGTQVTVSS	low polyreactivity
QVQLVESGGGLVQAGGSLRLSCAASGRIIRPYAMGWYRQAPGKERDFVATIRFTTGRTYYADSVKGRFTISRDNAKNTVYLQMNSLKPDDTAVYYCAADFAFVNYAKISYTTHDYWGQGTQVTVSS	high polyreactivity
QVQLVESGGGLVQAGGSLRLSCAASGSTFPGYAMGWYRQAPGKERELVAAINWRGDSTYYADSVKGRFTISRDNAKNTVYLQMNSLKPEDTAVYYCAAKYNHVTDEYDYWGQGTQVTVSS	high polyreactivity
QVQLVESWGGLVQAGGSLRLSCAASGRIFDPYAMGWYRQAPGKERELVATITLRGGITYYADSVKGRFTISRDNAKNTVYLEMNSLKPEDTAVYYCAKKVRYYVRWEYDYWGQGTQVTVSS	low polyreactivity
QVQLVESGGGLVQAGGSLRLSCAASGIIFYYNAMGWYRQAPGKERELVATIRWRGGSTYYADSVKGRFTISRDNAKNTVYLQMNSLKPEDTAVYYCNKSYDNSSDSDYWGQGTQVTVSS	low polyreactivity
QVQLEESGGGLVQAGGSLRLSCAASGFTFSRNAMGWYRKAPGKERQLVARISSRGGSTYYADSVKGRFTISRDNAKKTVYLQMNSLKPEDTAVYYCARDPVGTTAARYNYWGQGTQVTVSS	high polyreactivity

This collection of values is drawn from the nanobody polyreactivity screen of Harvey et al. (2022).
